Reference source for all entries: ChEMBL document CHEMBL1681787

Assay: Cytotoxicity against african green monkey Vero cells after 72 hrs by XTT assay
Assay type: cell-based
Settings: chlorocebus sabaeus
Reported property: CC50 at 72 h (µM)
State just the number; it will be interpreted in µM.

{"Structure notation": "COc1ccc(S(=O)(=O)NNC(=O)c2nnn(Nc3ccc(Br)cc3)c2C)cc1", "CC50 at 72 h / µM": 971}

Report CC50 at 72 h for Nc1nc2c(ncn2COCCO)c(=O)[nH]1 please.
860

Subsequent entry: Cc1c(C(=O)NNS(=O)(=O)c2ccccc2)nnn1Nc1ccccc1
1510

Subsequent entry: Cc1ccc(S(=O)(=O)NNC(=O)c2nnn(Nc3ccc(F)cc3)c2C)cc1
1270

Subsequent entry: Cc1c(C(=O)NNS(=O)(=O)c2ccccc2)nnn1Nc1cc(Cl)ccc1Cl
1170

* * *

Overview of reported inhibition at 50 µM across a group of molecules:
System: Human alphaherpesvirus 1
Assay: Antiviral activity against Herpes simplex viruses 1 infected in vero cells assessed as inhibition of viral replication at 50 uM after 72 hrs by XTT assay
Type: functional
Conditions: Human alphaherpesvirus 1, Vero
State just the number; it will be interpreted in %.

Solved cases (6 shown):
{"Structure notation": "Cc1c(C(=O)NNS(=O)(=O)c2ccccc2)nnn1Nc1ccc(Cl)cc1", "Recorded number": 57}
{"Structure notation": "Cc1ccc(S(=O)(=O)NNC(=O)c2nnn(Nc3ccc(Br)cc3)c2C)cc1", "Recorded number": 69}
{"Structure notation": "Cc1ccc(S(=O)(=O)NNC(=O)c2nnn(Nc3ccccc3)c2C)cc1", "Recorded number": 37}
{"Structure notation": "Cc1c(C(=O)NNS(=O)(=O)c2ccccc2)nnn1Nc1ccccc1", "Recorded number": 79}
{"Structure notation": "Cc1ccc(S(=O)(=O)NNC(=O)c2nnn(Nc3ccc(F)cc3)c2C)cc1", "Recorded number": 88}
{"Structure notation": "COc1ccc(S(=O)(=O)NNC(=O)c2nnn(Nc3ccc(Br)cc3)c2C)cc1", "Recorded number": 77}

Report inhibition at 50 µM for COc1ccc(S(=O)(=O)NNC(=O)c2nnn(Nc3ccccc3)c2C)cc1 please.
54

Subsequent entry: Nc1nc2c(ncn2COCCO)c(=O)[nH]1
95

Subsequent entry: Cc1c(C(=O)NNS(=O)(=O)c2ccccc2)nnn1Nc1ccc(Br)cc1
31

Subsequent entry: Cc1c(C(=O)NNS(=O)(=O)c2ccccc2)nnn1Nc1cc(Cl)ccc1Cl
71
